Test system: P. falciparum 3D7 parasites
TEST DESCRIPTION: P. falciparum growth inhibition assay, 1-cycle (72 h treatment), SYBR DNA staining (library screen at 2 μg/mL and dose-response)
Type: cell-based, Plasmodium falciparum
CONDITION CONTEXT: P. falciparum 3D7, 72 h, library screen at 2 μg/mL, % growth, replicate 2
PARAMETER MEASURED: Pf_72h_%Growth_Rep2 (%)
Answers are plain numbers, in %.

COc1ccc(/C=C/C(=O)O)cc1O | 116.78

Hello, I would appreciate it if you could give Pf_72h_%Growth_Rep2 for each entry below.
1. CC(=O)OC1CCC2(C)C(CCC3C2CC(=O)C2(C)C3CC3OC4(CCC(C)CO4)C(C)C32)C1 (stereo not shown)
2. CN1C(=O)[C@]23CC4=CC=C[C@H](O)[C@H]4N2C(=O)[C@@]1(CO)SS3
3. CNC1=NC(=O)C(C(C)c2c[nH]c3ccccc23)O1 (stereo not shown)
4. CC[C@H](C)C(=O)O[C@H]1C[C@@H](C)C=C2C=C[C@H](C)[C@H](CC[C@@H]3C[C@@H](O)CC(=O)O3)[C@H]21
5. CC1(C)OC2CC(=O)OCC23C1CC(=O)C1(C)C3CCC2(C)C(c3ccoc3)OC(=O)C3OC321 (stereo not shown)
6. CCC(C)C1OC2(CCC1C)CC1CC(CC=C(C)C(OC3CC(OC)C(O)C(C)O3)C(C)C=CC=C3COC4C(O)C(C)=CC(C(=O)O1)C34O)O2 (stereo not shown)
7. Cc1cc(O)c(O)c2oc(=O)c3c(O)cc(O)cc3c12

Completion:
1. 124.08
2. 8.82
3. 55.84
4. 102.36
5. 113.59
6. 14.34
7. 114.26

Hello, I would appreciate it if you could give Pf_72h_%Growth_Rep2 for each entry below.
1. COC1C=CC=C(C)C(=O)NC2=CC(=O)C=C(C2=O)C(OC)C(C)CC(OC)C(OC)C(C)C=C(C)C1OC(N)=O (stereo not shown)
2. C=C(C)[C@@H]1CC[C@]2(C)CC[C@]3(C)[C@H](CC[C@@H]4[C@@]5(C)CC[C@H](O)C(C)(C)[C@@H]5CC[C@]43C)[C@@H]12
3. CCOC(=O)c1c2ccocc-2oc1=O
4. CC1=C[C@H](O/C=C2/C(=O)O[C@@H]3c4ccccc4C[C@H]23)OC1=O
5. CCCCCCCCCCCCCCCC(=O)NC1CCOC1=O (stereo not shown)

Completion:
[44.34, 111.85, 90.55, 84.87, 78.97]

Hello, I would appreciate it if you could give Pf_72h_%Growth_Rep2 for each entry below.
1. CCCCCC(=O)OC1C(C)OC(OC2C(C)OC(OC3C(CC=O)CC(C)C(O)C=CC=CCC(C)OC(=O)CC(O)C3OC)C(O)C2N(C)C)CC1(C)O (stereo not shown)
2. Oc1cccc2nc3ccccc3nc12
3. CCCC1CC(C(=O)NC(C(C)O)C2OC(SC)C(O)C(O)C2O)N(C)C1 (stereo not shown)
4. COc1cc(C)c2c(OC)cc(=O)oc2c1-c1c(OC)cc(C)c2c(OC)cc(=O)oc12
5. CCCC(O)C(O)C1CC(OC)=CC(=O)O1 (stereo not shown)
6. C=C1c2c(Cl)ccc(O)c2C(=O)C2=C(O)[C@]3(O)C(=O)C(C(N)=O)=C(O)[C@@H](N(C)C)[C@@H]3[C@@H](O)[C@H]12

Completion:
1. 36.72
2. 98.32
3. 59.50
4. 89.27
5. 77.83
6. 116.17

Where do the numbers come from? From paper PMC12396409.
